# Assay Target: GCS enzyme contained within Golgi preparations isolated from human A375 malignant melanoma skin cells (Homo sapiens)
# Construct: endogenous levels of GCS enzyme contained within Golgi preparations isolated from human A375 malignant melanoma skin cells; endogenous in cells
# Sequence (Q16739 whole entry): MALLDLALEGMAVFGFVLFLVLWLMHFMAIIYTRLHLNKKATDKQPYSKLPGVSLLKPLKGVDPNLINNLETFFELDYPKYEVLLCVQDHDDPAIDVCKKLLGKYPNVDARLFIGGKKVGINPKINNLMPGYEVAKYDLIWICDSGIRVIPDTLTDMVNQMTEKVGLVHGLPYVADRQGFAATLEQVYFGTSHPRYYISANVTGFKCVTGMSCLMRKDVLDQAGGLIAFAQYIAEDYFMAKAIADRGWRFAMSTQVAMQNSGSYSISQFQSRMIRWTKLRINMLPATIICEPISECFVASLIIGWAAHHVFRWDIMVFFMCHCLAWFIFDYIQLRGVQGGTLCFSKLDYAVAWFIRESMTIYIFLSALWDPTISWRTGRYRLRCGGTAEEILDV
# Measurement Description: UDP-Glo glucosylceramide synthase biochemical assay
# Cond: crude Golgi preparation from A375 cells; C6 ceramide and UDP-glucose substrates; 20 h incubation at room temperature; UDP detected by luminescence
pEC50: −log10 of the molar value.
Quantity: pEC50

P = COc1cc(C#N)cc(-c2nccc3c2C(=O)N(C(C2CC2)C(C)(C)O)C3)c1 (single isomer, unassigned)
Q = CC(C)(O)C(C1CC1)N1Cc2cccc(NC(=O)c3ccnc4c3CCO4)c2C1=O (single isomer, unassigned)
R = COc1ccc(F)c(F)c1C(=O)Nc1cccc2c1C(=O)N(C(C1CC1)C(C)(C)O)C2 (single isomer, unassigned)
Put the above molecules in order of rising pEC50, beginning with the smallest. Write the labels in rank order as requested.
P, Q, R
(P: 7.02, Q: 7.64, R: 9.39)
